readout_type: melting point

The examples below pair each entry with its known result.
O=C(CC(=O)Nc1ccc(Br)cc1)Cn1cc(CSc2nc3ccccc3o2)nn1; 210 to 214 °C
O=C(Cn1cc(CSc2nc3ccccc3o2)nn1)c1ccc([N+](=O)[O-])cc1; 142 to 146 °C
O=C(CC(=O)Nc1cccc(Cl)c1)Cn1cc(CSc2nc3ccccc3o2)nn1; 165 to 169 °C
O=C(CC(=O)Nc1ccc(Cl)cc1)Cn1cc(CSc2nc3ccccc3o2)nn1; 171 to 174 °C

Attention now turns to another entry.
Identify melting point associated with the molecule O=C(CC(=O)Nc1ccc(C(F)(F)F)cc1)Cn1cc(CSc2nc3ccccc3o2)nn1
185 to 189 °C

###

# Test system: mouse fibroblast 3T3 cells
# assay_details: MTT cytotoxicity assay on mouse fibroblast 3T3 cells
# Format: cell-based
# test_conditions: IC50 (μg/mL)/MIC (μg/mL); 3T3 cells vs Mtb H37Rv
readout_type: Selectivity index
One number for each entry.

The examples below pair each entry with its known result.
Cc1ccccc1NC(=O)CC(=O)Cn1cc(CSc2nc3ccccc3o2)nn1; 57.77
O=C(Cn1cc(CSc2nc3ccccc3o2)nn1)c1ccccc1; 8.76
O=C(CC(=O)Nc1ccccc1)Cn1cc(CSc2nc3ccccc3o2)nn1; 37.07
O=C(Cn1cc(CSc2nc3ccccc3o2)nn1)c1ccc(F)cc1; 11.62

Attention now turns to another entry.
Consider the molecule O=C(CC(=O)Nc1ccccc1F)Cn1cc(CSc2nc3ccccc3o2)nn1 tested on mouse fibroblast 3T3 cells; state its Selectivity index.
46.75

###

readout_type: melting point

The examples below pair each entry with its known result.
COc1ccc(NC(=O)CC(=O)Cn2cc(CSc3nc4ccccc4o3)nn2)cc1 [BOK-9]; 169 to 172 °C
COc1ccc(C(=O)Cn2cc(CSc3nc4ccccc4o3)nn2)cc1 [BOP-2]; 148 to 152 °C
CCOc1ccc(NC(=O)CC(=O)Cn2cc(CSc3nc4ccccc4o3)nn2)cc1 [BOK-10]; 175 to 179 °C
Cc1ccc(C(=O)Cn2cc(CSc3nc4ccccc4o3)nn2)cc1 [BOP-3]; 142 to 146 °C

Identify melting point associated with the compound Cc1ccc(NC(=O)CC(=O)Cn2cc(CSc3nc4ccccc4o3)nn2)cc1 [BOK-5]
175 to 179 °C

###

# measurement_target: DprE1 (Mycobacterium tuberculosis)
# Sequence (P9WJF1 whole entry): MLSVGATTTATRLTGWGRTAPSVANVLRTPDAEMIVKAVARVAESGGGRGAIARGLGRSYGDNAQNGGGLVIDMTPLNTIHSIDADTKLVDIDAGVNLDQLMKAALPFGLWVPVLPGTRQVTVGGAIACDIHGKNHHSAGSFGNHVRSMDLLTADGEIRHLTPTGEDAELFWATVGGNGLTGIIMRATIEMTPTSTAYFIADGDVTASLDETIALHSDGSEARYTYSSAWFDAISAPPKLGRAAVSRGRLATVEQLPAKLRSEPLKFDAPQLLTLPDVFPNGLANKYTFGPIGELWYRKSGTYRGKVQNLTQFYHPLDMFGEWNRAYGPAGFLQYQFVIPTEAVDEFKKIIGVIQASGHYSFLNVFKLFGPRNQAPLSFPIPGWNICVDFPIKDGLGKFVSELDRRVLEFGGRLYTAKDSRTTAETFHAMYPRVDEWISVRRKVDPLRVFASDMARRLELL
readout_type: pIC50
Answers are plain numbers, as −log10 of the molar value.

The examples below pair each entry with its known result.
CCOC(=O)NC(=O)c1ccsc1NC(=O)c1nc2ccccc2s1 [TCA-1, reference compound]; 5.52
O=C(CC(=O)Nc1ccccc1)Cn1cc(CSc2nc3ccccc3o2)nn1; 5.28
O=C(Cn1cc(CSc2nc3ccccc3o2)nn1)c1ccccc1; 5.48
O=C(CC(=O)Nc1ccccc1F)Cn1cc(CSc2nc3ccccc3o2)nn1; 5.52

Identify pIC50 associated with the compound O=C(Cn1cc(CSc2nc3ccccc3o2)nn1)c1ccc(F)cc1
5.51
